Data origin: ChEMBL document CHEMBL5058577

test system: Fibroblast; assay: Multiplex assay against human fibroblast; format: toxicity, cell-based; settings: 48 h, 10 µM, compound concentration 10 uM, replicate 1
Assignment: determine reported Population Fragmented Nuclei (%) for the given compounds.
Only the number, expressed in %, is required.

Any idea what its Population Fragmented Nuclei (%) is? The compound is COc1cc2nc(N3CCN(C(=O)c4ccco4)CC3)nc(N)c2cc1OC.Cl [PRAZOSIN HYDROCHLORIDE]
25

Moving on to Cc1c(Cc2ccc3ccccc3n2)c2cc(F)ccc2n1CC(=O)O
18

Moving on to Cc1nn(C)c2nc(NNC(=O)Nc3cc(Cl)nc(Cl)c3)cc(C(C)C)c12
16

Moving on to CCCCC[C@H](O)/C=C/[C@H]1[C@H](O)CC(=O)[C@@H]1CCCCCCC(=O)O
11

Moving on to Cn1cc(C(=O)OCC2CCN(CCNS(C)(=O)=O)CC2)c2ccccc21
28

Moving on to COC(c1ccccc1)(c1ccccc1)[C@H](Oc1nc(C)cc(C)n1)C(=O)O
14

Moving on to Cc1cc(O)c(-c2ccc([C@@H](C)CN(C)C)cc2)c2c1[nH]c(=O)c1sccc12
17

Moving on to Cc1cc(NC(=O)NCCN2CCC(O)(Cc3ccccc3)CC2)c2ccccc2n1
19

Moving on to COc1cc2nc(N3CCN(C(=O)COc4c(OC)cccc4C(C)C)CC3)nc(N)c2cc1OC.Cl.Cl
12

Moving on to C=CCN1C[C@H](C(=O)N(CCCN(C)C)C(=O)NCC)C[C@@H]2c3cccc4[nH]cc(c34)C[C@H]21
24

Moving on to S=C(NCCCc1c[nH]cn1)NCCCN(Cc1ccc(Cl)c(Cl)c1)c1ccc(Br)cn1
27

Moving on to CCc1nn2c(C)cc(C)nc2c1Cc1ccc(-c2nnc(C3CCNCC3)o2)cc1
23

Moving on to CC(C)(C)c1ccc(CSc2cnn(C(C)(C)C)c(=O)c2Cl)cc1
19

Moving on to CN1C[C@H](C(=O)N[C@]2(C)O[C@@]3(O)[C@@H]4CCCN4C(=O)[C@H](Cc4ccccc4)N3C2=O)C[C@@H]2c3cccc4[nH]cc(c34)C[C@H]21.CS(=O)(=O)O [DIHYDROERGOTAMINE MESYLATE]
21

Moving on to Cc1cc(-c2ccc3c(c2)CC[C@H]3N2CC3(CCN(C(=O)Cc4cn5cc(C)sc5n4)CC3)C2)ncn1
22

Moving on to COc1cc(OC2CCN(C(C)=O)CC2)ccc1C(=O)N1CCC(N2C(=O)OCc3ccccc32)CC1
10

Moving on to CC(C)C[C@H](CO)Nc1nc(S[C@@H](C)c2ccccc2)nc2nc(N)sc12
25

Moving on to COc1ccc2[nH]c(I)c(CCNC(C)=O)c2c1
29

Moving on to CN1CCN(c2ccc(Nc3c4ccccc4nc4ccccc34)cc2)CC1.Cl.Cl.O
71

Moving on to COc1cc(C(=O)N2CC[C@@H](O)[C@@H](N)C2)cc2nc(-c3cc4ccccc4n3CC3CC3)n(C)c12.Cl
20

Moving on to CC(C)(O)C(=O)N1CCN(c2ccc(C(F)(F)F)c(C3=C(c4c[nH]c5ccccc45)C(=O)NC3=O)c2)CC1
33

Moving on to CCC(=O)OCC(=O)[C@@]1(OC(=O)CC)[C@@H](C)C[C@H]2[C@@H]3CCC4=CC(=O)C=C[C@]4(C)[C@@]3(Cl)[C@@H](O)C[C@@]21C [BECLOMETHASONE DIPROPIONATE]
21

Moving on to CN(C)C(=O)Cn1cc(-c2ccc(-c3nnc4ccccn34)cc2)cn1
16

Moving on to OCCCNc1cc(-c2ccnc(Nc3cccc(Cl)c3)n2)ccn1
39

Moving on to Cc1cc(=O)n(C)c2cc(N3C(=O)CC[C@H](NS(=O)(=O)CC(C)C)[C@H]3c3ccc(Cl)cc3)ccc12
23

Moving on to O=C(Nc1cc(-c2ccccc2)nn1-c1ccccc1F)c1ccc([N+](=O)[O-])cc1
16

* * *

tested on: Fibroblast; assay: Multiplex assay against human fibroblast; assay type: toxicity, cell-based; settings: 48 h, 10 µM, compound concentration 10 uM, replicate 1
Reported Metric: Population Mitotic Cells (%)
Only the number, expressed in %, is required.

Query Population Mitotic Cells (%) on Fibroblast for CCCCC[C@H](O)/C=C/[C@H]1[C@H](O)CC(=O)[C@@H]1CCCCCCC(=O)O
37

Moving on to COc1cc(Nc2ncc3c(n2)-c2ccc(Cl)cc2C(c2c(F)cccc2OC)=NC3)ccc1C(=O)O
15

Moving on to CN1C[C@H](C(=O)N[C@]2(C)O[C@@]3(O)[C@@H]4CCCN4C(=O)[C@H](Cc4ccccc4)N3C2=O)C[C@@H]2c3cccc4[nH]cc(c34)C[C@H]21.CS(=O)(=O)O [DIHYDROERGOTAMINE MESYLATE]
36

Moving on to Cc1nn(C)c2nc(NNC(=O)Nc3cc(Cl)nc(Cl)c3)cc(C(C)C)c12
6

Moving on to CCC(=O)OCC(=O)[C@@]1(OC(=O)CC)[C@@H](C)C[C@H]2[C@@H]3CCC4=CC(=O)C=C[C@]4(C)[C@@]3(Cl)[C@@H](O)C[C@@]21C [BECLOMETHASONE DIPROPIONATE]
32

Moving on to Cc1cc(O)c(-c2ccc([C@@H](C)CN(C)C)cc2)c2c1[nH]c(=O)c1sccc12
29

Moving on to CC(C)(C)c1ccc(CSc2cnn(C(C)(C)C)c(=O)c2Cl)cc1
28

Moving on to CCCCCCNC(=O)Nc1ccc(S(=O)(=O)Nc2ccc(CCNC[C@H](O)COc3ccc(O)cc3)cc2)cc1
20

Moving on to COc1cc2nc(N3CCN(C(=O)COc4c(OC)cccc4C(C)C)CC3)nc(N)c2cc1OC.Cl.Cl
54

Moving on to COc1ccc2c(c1OCc1ccccc1)C[C@@H](C(=O)O)N(C(=O)C(c1ccccc1)c1ccccc1)C2
42

Moving on to Cc1cc(NC(=O)NCCN2CCC(O)(Cc3ccccc3)CC2)c2ccccc2n1
44

Moving on to O=c1nc2[nH]c3ccccc3nc-2c(=O)[nH]1
44

Moving on to Cc1ccc(OCC(O)C(C)NC(C)C)c2c1CCC2.Cl (configuration not stated)
28

Moving on to Nc1nc(-c2ccco2)c2cnn(Cc3ccccc3F)c2n1
20

Moving on to COCCn1c(C)c(C)s/c1=N\C(=O)C1C(C)(C)C1(C)C
25

Moving on to Cc1cc(-c2ccc3c(c2)CC[C@H]3N2CC3(CCN(C(=O)Cc4cn5cc(C)sc5n4)CC3)C2)ncn1
36

Moving on to C[C@H](NC(=O)CNC(=O)c1cccc(Cl)c1)c1ccccc1
31

* * *

system: U2OS; assay: Multiplex assay against U2OS; assay type: toxicity, cell-based; conditions: human, 48 h, 10 µM, compound concentration 10 uM, replicate 2
Non-standard residues stand in square brackets, D forms with d. Residues, ends and D or L forms follow the SMILES beside them.
Assignment: determine reported Population Pyknosed Nuclei (%) for the given compounds.
Only the number, expressed in %, is required.

Any idea what its Population Pyknosed Nuclei (%) is? The compound is Cc1sc2c(c1C)C(c1ccc(Cl)cc1)=N[C@H](CC(=O)OC(C)(C)C)c1nnc(C)n1-2
11

Moving on to OCCCNc1cc(-c2ccnc(Nc3cccc(Cl)c3)n2)ccn1
24

Moving on to CN(C)C(=O)Cn1cc(-c2ccc(-c3nnc4ccccn34)cc2)cn1
9

Moving on to N[C@](CC1c2ccccc2Oc2ccccc21)(C(=O)O)[C@H]1C[C@@H]1C(=O)O
9

Moving on to COCCCN1CCC(NC(=O)c2cc(Cl)c(N)c3c2OCC3)CC1 [PRUCALOPRIDE]
9

Moving on to O=c1ccc2ccc(OCCCCN3CCN(c4cccc5sccc45)CC3)cc2[nH]1
56

Moving on to CN1CCC(C(=O)c2cccc(NC(=O)c3c(F)cc(F)cc3F)n2)CC1
14

Moving on to CC(C)C[C@@H]1NC(=O)[C@@H](C(C)C)NC(=O)[C@@H]2CCCN2C(=O)[C@@H](CC(=O)O)NC(=O)[C@@H](Cc2c[nH]c3ccccc23)NC1=O [BQ-123] (cyclo(L[dW][dD]P[dV]))
12

Moving on to O=c1nc2[nH]c3ccccc3nc-2c(=O)[nH]1
8

* * *

tested on: HEK-293T; assay: Multiplex assay against HEK293T; assay type: toxicity, cell-based; settings: human, 48 h, 10 µM, compound concentration 10 uM, replicate 1
Reported Metric: Population Pyknosed Nuclei (%)
Only the number, expressed in %, is required.

Any idea what its Population Pyknosed Nuclei (%) is? The compound is COCCn1c(C)c(C)s/c1=N\C(=O)C1C(C)(C)C1(C)C
8

Moving on to C=CCN1C[C@H](C(=O)N(CCCN(C)C)C(=O)NCC)C[C@@H]2c3cccc4[nH]cc(c34)C[C@H]21 [CABERGOLINE]
9

Moving on to Cc1ccc(OCC(O)C(C)NC(C)C)c2c1CCC2.Cl (stereo not drawn)
14

Moving on to COc1ccc2[nH]c(I)c(CCNC(C)=O)c2c1 [IODOMELATONIN]
5

Moving on to C[C@@H]1CC(=O)Nc2cccc(-c3ccc4c(c3)c(-c3cnn(C)c3)nn4C)c2N1
6

Moving on to CC(C)C[C@H](CO)Nc1nc(S[C@@H](C)c2ccccc2)nc2nc(N)sc12 [AZD-8797]
11

Moving on to COc1cc2nc(N3CCN(C(=O)COc4c(OC)cccc4C(C)C)CC3)nc(N)c2cc1OC.Cl.Cl
25

Moving on to CN(C)C/C=C/C(=O)Nc1ccc(C(=O)N2CCCC(Nc3ncc(Cl)c(-c4c[nH]c5ccccc45)n3)C2)cc1 (stereo not drawn)
23

Moving on to COc1ccc2c(c1OCc1ccccc1)C[C@@H](C(=O)O)N(C(=O)C(c1ccccc1)c1ccccc1)C2 [OLODANRIGAN]
8

Moving on to O=c1ccc2ccc(OCCCCN3CCN(c4cccc5sccc45)CC3)cc2[nH]1 [BREXPIPRAZOLE]
50

Moving on to COc1c(Nc2ccc(S(C)(=O)=O)nc2C)ncnc1OC1CCN(C(=O)OC(C)C)CC1 [ADP-597]
11

Moving on to N[C@](CC1c2ccccc2Oc2ccccc21)(C(=O)O)[C@H]1C[C@@H]1C(=O)O
8

Moving on to O=C(NCCNCC(O)COc1ccc(O)cc1)N1CCOCC1.O=C(NCCNCC(O)COc1ccc(O)cc1)N1CCOCC1.O=C(O)/C=C/C(=O)O (stereo not drawn) [XAMOTEROL FUMARATE]
5

Moving on to Nc1nc(-c2ccco2)c2cnn(Cc3ccccc3F)c2n1
9

Moving on to COCCCN1CCC(NC(=O)c2cc(Cl)c(N)c3c2OCC3)CC1 [PRUCALOPRIDE]
6

Moving on to COc1cc(OC2CCN(C(C)=O)CC2)ccc1C(=O)N1CCC(N2C(=O)OCc3ccccc32)CC1
8

Moving on to Cc1cc(O)c(-c2ccc([C@@H](C)CN(C)C)cc2)c2c1[nH]c(=O)c1sccc12
20

Moving on to Cc1sc2c(c1C)C(c1ccc(Cl)cc1)=N[C@H](CC(=O)OC(C)(C)C)c1nnc(C)n1-2
16
